Every entry's value here was drawn from ChEMBL document CHEMBL3638839.

system: Fatty-acid amide hydrolase 1 (Homo sapiens)
Sequence (O00519 whole entry): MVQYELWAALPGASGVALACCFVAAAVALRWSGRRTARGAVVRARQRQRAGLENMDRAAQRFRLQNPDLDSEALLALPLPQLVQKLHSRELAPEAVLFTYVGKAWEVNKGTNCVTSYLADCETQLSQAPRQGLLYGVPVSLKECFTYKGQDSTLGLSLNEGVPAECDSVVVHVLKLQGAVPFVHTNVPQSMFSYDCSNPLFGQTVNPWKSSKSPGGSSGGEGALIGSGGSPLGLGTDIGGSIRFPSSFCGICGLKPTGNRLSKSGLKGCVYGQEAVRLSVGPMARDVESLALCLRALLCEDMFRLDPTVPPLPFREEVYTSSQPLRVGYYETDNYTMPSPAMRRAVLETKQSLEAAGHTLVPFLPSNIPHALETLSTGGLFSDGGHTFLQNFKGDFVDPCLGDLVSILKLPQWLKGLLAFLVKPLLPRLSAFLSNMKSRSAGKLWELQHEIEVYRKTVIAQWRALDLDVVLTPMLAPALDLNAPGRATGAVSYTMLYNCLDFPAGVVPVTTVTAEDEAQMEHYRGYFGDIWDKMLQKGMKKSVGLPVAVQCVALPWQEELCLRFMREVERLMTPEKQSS
experiment: Inhibition Assay: Human FAAH 1 activity was determined by measuring the liberation of the highly fluorescent 7-amino, 4-methyl Coumarin (AMC) generated during hydrolysis of the substrate arachidonoyl 7-amino, 4-methyl coumarin amide (AAMCA) by FAAH. Inhibition of human FAAH 1 activity was determined as a percentage reduction of the fluorescence determined in the absence of compound.The assay was carried out in black-walled, clear bottom, 384-well plates. 27.5 ul of human FAAH 1 protein (in FAAH assay buffer: 50 mM Hepes, 0.01% Triton X-100, 1 mM EDTA, 0.5 mg/ml BSA (fatty-acid-free), pH 8.2) was pre-incubated, at 10 nM, with increasing concentrations of compounds (2.5 ul in 100% DMSO) for 1 hour at room temperature. 2.5 ul of DMSO was added for total controls (100% FAAH activity) and 2.5 ul of URB-597, a known inhibitor of FAAH activity, (at a final, saturating, concentration of 10 uM) was used for non-specific controls (0 FAAH activity).
pIC50: −log10 of the molar value.
readout.label: pIC50

COc1ccccc1-c1ccc(OC2CN(C(=O)Nc3cccnn3)C2)nc1    7.92
